Tested on: MKK7
runParameters: concentration: 1 μM, replicates: in singlicate; n = 1;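 note: KINOMEscan kinase panel screen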
measurementKind: %Inh (%)
Report only the number, with the unit % understood.

Please tell me: %Inh of O=C(Nc1n[nH]c2nc(-c3ccco3)c(Br)cc12)C1CCN(Cc2ccccc2)C1.O=C(O)[C@H](O)[C@@H](O)C(=O)O (stereo not shown) , system MKK7?
0

Kindly state the measured %Inh obtained for Cn1cnc2c(N)ncnc21 with MKK7.
0

Fill in the recorded %Inh for this molecule, with MKK7 as test system: COC(=O)C(Cc1ccccc1)NC(=O)NC1CCN(c2ccnc(Nc3ccc(F)cc3)n2)C1 (stereo not shown)
0

Lab note: need %Inh with MKK7 for entry COc1ccc(-c2coc3ccc(-c4nnc(C)o4)cc23)cc1 , please look it up.
0

Recorded %Inh for COc1cc2ncnc(Nc3cccc(Br)c3)c2cc1OC.Cl with MKK7, please?
0

Lab request: please report %Inh under test system MKK7 for Fc1ccc(-c2nc[nH]c2-c2ccncc2)cc1
9

Report %Inh for CS(=O)(=O)Cc1ccc(Nc2nccc(-c3c(-c4cccc(NC(=O)C5CCCCC5)c4)nn4ncccc34)n2)cc1 tested on MKK7.
21

---

Test system: JNK3
Construct: gene MAPK10
runParameters: concentration: 1 μM, replicates: in singlicate; n = 1
Hi there, I'd appreciate the recorded %Inh for every entry that follows.
# number only, unit % dropped from output

Which %Inh is listed for O=C(Nc1n[nH]c2nc(-c3ccco3)c(Br)cc12)C1CCN(Cc2ccccc2)C1.O=C(O)[C@H](O)[C@@H](O)C(=O)O (stereo not drawn) ?
13

What value of measured %Inh is listed for Cc1ccccc1-c1cc(-c2c[nH]nc2-c2ccccn2)ccn1 ?
32

# query: %Inh of entry FC(F)(F)c1ccccc1-c1cc(-c2c[nH]nc2-c2ccccn2)ccn1
40

Request the reported %Inh associated with Cc1ccccc1Cn1ccn2c(=O)cc(N3CCOCC3)nc12
1

# query: %Inh of entry c1ccc(-c2ccnc3[nH]ccc23)cc1
11

Item under review: Cn1cncc1-c1cc2c(Nc3ccc(OCc4ccccc4)cc3)ncnc2cn1 . Reported %Inh?
1

Quick check: %Inh of Cc1cccc2c(-c3ccncn3)c(-c3ccc(F)cc3)nn12 ?
74

// query %Inh value for entry Cc1ccc(-c2nc(Nc3ccncc3)c3ccccc3n2)s1
14

Consider the compound Fc1ccc(-c2nn3cccc(F)c3c2-c2ccncc2)cc1 and give its measured %Inh.
97.4

Looking for the measured %Inh of CCc1ccc(-c2ccc3c(c2)-c2n[nH]cc2S(=O)(=O)N3C)cc1 , can you help?
0

Request the reported %Inh associated with Nc1nccc(-c2c(-c3ccc(F)cc3)ncn2C2CCN(Cc3ccccc3)CC2)n1
95.4

Consider the compound CS(=O)(=O)CCNCc1nc(-c2ccc3ncnc(Nc4ccc5c(cnn5Cc5ccccc5)c4)c3c2)cs1.Cl.Cl and give its measured %Inh.
4

Query (compound): Cc1nccc(-c2c(-c3ccc(F)cc3)ncn2CCCN2CCOCC2)n1.Cl ; field requested: %Inh
43

Record request: %Inh value, item CCn1c(-c2ccccc2)nc2cnccc21
7

Consider the compound shown here: Cc1ccc(NC(=O)Nc2ccc(Cl)cc2)cc1-c1ccc(C(=O)Nc2ccncc2)cc1 What is its recorded %Inh?
1

Which measured %Inh value corresponds to O=C(Nc1n[nH]c2nc(-c3cccs3)c(Br)cc12)C1CC1 ?
9

// %Inh lookup, key: Cc1c(Cn2c3ccccc3n3c(=O)cc(N4CCOCC4)nc23)cccc1C(F)(F)F
4

Need %Inh of COc1ccc(-c2coc3ccc(-c4nnc(C)o4)cc23)cc1 , thanks.
0

Param item = Cc1ccc(NC(=O)c2ccc(Cl)cc2)cc1-c1ccc(C(=O)Nc2ccncc2)cc1 ; retrieve measured %Inh.
0

If you can, please state the reported %Inh value of COc1ccc(Nc2nccc(N3CCC(NC(=O)C(C)c4ccc(Cl)cc4)C3)n2)cc1 (stereo not drawn) .
0

Give the measured %Inh of COc1ccc(CSc2nnc(-c3ccc4ncsc4c3)o2)cc1C(F)(F)F .
0

Need %Inh, item COc1ccc2cc(-c3nc(-c4ccccc4C(C)C)[nH]c3-c3ccncc3)ccc2c1
44

Would you kindly share the measured %Inh for CNc1cc(-c2ccc3c(N)n[nH]c3c2)nc(N)n1 ?
0

Name the recorded %Inh for O=c1cc(N2CCOCC2)nc2n(Cc3ccccc3F)ccn12 .
0

---

Answer each item with its documented %Inh.
Test system: RSK3(Kin.Dom.2-C-terminal)
Construct: gene RPS6KA2
runParameters: concentration: 1 μM, replicates: in singlicate; n = 1
In your response, put the unit directly after the numeric value.

What value of %Inh has been recorded for this entry: COc1ccc(Nc2nccc(N3CCC(NC(=O)C(C)c4ccc(Cl)cc4)CC3)n2)cc1 (stereo not shown) [GSK1379812]
3%

May I ask what %Inh has been recorded for COC(=O)c1cccc(NC(=O)NC2CCN(c3ccnc(Nc4ccc(OC)cc4)n3)C2)c1 (stereo not shown) [GSK1379746] ?
0%

Entry CCc1ccc(-c2ccc3c(c2)-c2n[nH]cc2S(=O)(=O)N3C)cc1 : reported %Inh = ?
17%

Need %Inh of COc1ccc2cc(-c3nc(-c4ccccc4C(C)C)[nH]c3-c3ccncc3)ccc2c1 [SB-660566] , thanks.
0%

---

Kindly supply the reported %Inh values for the records listed here.
Test system: CAMKK1
runParameters: concentration: 1 μM, replicates: in singlicate; n = 1
Unit % implied. Number only.

What measured %Inh goes with O=C(Nc1n[nH]c2nc(-c3cccs3)c(Br)cc12)C1CC1 ?
0

Which %Inh reading was recorded for the molecule Cc1c(Cn2c3ccccc3n3c(=O)cc(N4CCOCC4)nc23)cccc1C(F)(F)F ?
69

So what does the record say about %Inh for COc1ccc(Nc2nccc(-c3ccc(NC(=O)c4cc5cc(F)ccc5[nH]4)cc3)n2)cc1 ?
0

# lookup: %Inh of CC(C)c1ccc(O)cc1Nc1ccnc2ccc(C(F)(F)F)cc12
0

Return reported %Inh; argument: CC(=O)c1c(C)c2cnc(Nc3ccn(C)n3)nc2n(C2CCCC2)c1=O
7

---

Tested on: MLK1
Construct: gene MAP3K9
runParameters: concentration: 1 μM, replicates: in singlicate; n = 1
measurementKind: %Inh (%)
Report only the number, with the unit % understood.

Report %Inh for CCn1c(-c2ccccc2)nc2cnccc21 please.
0

Which measured %Inh value corresponds to CNC(=O)c1ccc(C)c(-n2c(C)cc(OCc3ccc(F)cc3F)c(Br)c2=O)c1 ?
0

Bench note: what %Inh did CS(=O)(=O)CCNCc1nc(-c2ccc3ncnc(Nc4ccc5c(cnn5Cc5ccccc5)c4)c3c2)cs1.Cl.Cl show?
1

I would be grateful if you could share the reported %Inh for CNc1cc(-c2ccc3c(N)n[nH]c3c2)nc(N)n1 .
7

If you can, please state the reported %Inh value of COc1cc2ncnc(Nc3cccc(Br)c3)c2cc1OC.Cl .
0

Please look up its %Inh: CCCCc1nn2ncccc2c1-c1ccnc(NC2CC2)n1
0

Recorded %Inh for COc1ccc2cc(-c3nc(-c4ccccc4C(C)C)[nH]c3-c3ccncc3)ccc2c1 , please?
0

---

System: HIPK4
runParameters: concentration: 1 μM, replicates: in singlicate; n = 1
measurementKind: %Inh (%)
Give the number; % is assumed, so skip it.

Test system HIPK4; read-out %Inh; what value for COc1ccc(CSc2nnc(-c3ccc4c(c3)CCO4)o2)cc1 ?
0

%Inh of Cc1cccc2c(-c3ccncn3)c(-c3ccc(F)cc3)nn12 on HIPK4?
8

Which measured %Inh belongs to Cn1cncc1C(=O)NC1CCN(c2ccnc(Nc3ccc(F)cc3)n2)C1 (centres unmarked) , tested on HIPK4?
0

// map O=C(Nc1n[nH]c2nc(-c3cccs3)c(Br)cc12)C1CC1 to recorded %Inh (system: HIPK4)
10

Lab note: need %Inh for COc1ccc(-c2coc3ccc(-c4nnc(C)o4)cc23)cc1 on HIPK4, anyone have it?
8

---

Test system: IKK-epsilon
Construct: gene IKBKE
runParameters: concentration: 1 μM, replicates: in singlicate; n = 1
measurementKind: %Inh (%)
Report the value in % with no unit label.

Quick check: %Inh on IKK-epsilon, item Fc1ccc(-c2nn3cccc(F)c3c2-c2ccncc2)cc1 [GW475620] ?
14

Request: %Inh, test system IKK-epsilon, entry Cc1nccc(-c2c(-c3ccc(F)cc3)ncn2CCCN2CCOCC2)n1.Cl [SB-282975]
0

Return %Inh measured with IKK-epsilon given this compound: COc1ccc(Nc2nccc(NCCNC(=O)Nc3cc(C)ccc3C)n2)cc1 [GSK1379899]
1

Quick check: %Inh on IKK-epsilon, item CC(C)c1cc(-c2ccc3c(N)n[nH]c3c2)nc(N)n1 [GSK2250882] ?
10

Can you look up %Inh on IKK-epsilon for COc1ccc(CSc2nnc(-c3ccc4c(c3)CCO4)o2)cc1 ?
0

Please tell me: %Inh of CSc1ccc(-c2nc3n(c2-c2ccncc2)CCC3)cc1 [SKF-105561] , system IKK-epsilon?
12

Lookup: %Inh / IKK-epsilon / CCn1c(-c2ccccc2)nc2cnccc21 [SB-733416]
19

Lookup: %Inh / IKK-epsilon / Fc1ccc(-c2nc3n(c2-c2ccncc2)CCS3)cc1 [GI98581]
0

Field: %Inh (IKK-epsilon). Entry: COc1ccc(Nc2nccc(N3CCC(NC(=O)c4cc5ccccc5s4)C3)n2)cc1 (centres unmarked) [GSK1379738]
28

Quick check: %Inh on IKK-epsilon, item CNC(=O)c1ccc(C)c(-n2c(C)cc(OCc3ccc(F)cc3F)c(Br)c2=O)c1 ?
0

Any idea what %Inh came out for COc1ccc(Nc2nccc(N3CCC(NC(=O)C(C)c4ccc(Cl)cc4)C3)n2)cc1 (centres unmarked) [GSK1379735] on IKK-epsilon?
0

Checklist item: %Inh tested on IKK-epsilon, entry Cn1cncc1-c1cc2c(Nc3ccc(OCc4ccccc4)cc3)ncnc2cn1 [GW281179] , value?
4

Notebook entry, IKK-epsilon assay: %Inh of Cc1cccc2c(-c3ccncn3)c(-c3ccc(F)cc3)nn12 [GW515532] = ?
0

Tell me reported %Inh for O=C(Nc1n[nH]c2nc(-c3cccs3)c(Br)cc12)C1CC1 [SB-735297] , tested with IKK-epsilon.
0
